molecular target: NR1-1a/NR2B receptors (Homo sapiens, UniProt Q05586+Q13224); assay: Two electrode voltage clamp of Xenopus oocytes expressing NR1-1a and NR2B NMDA receptor subunits; inhibition of glutamate/glycine current at pH 6.9 and 7.6; type: cell-based; details: Table D; pH 6.9; NR1-1a/NR2B in Xenopus oocytes; read-out: IC50 at pH 6.9
Sequence (Q13224 27-1484, other chains not shown): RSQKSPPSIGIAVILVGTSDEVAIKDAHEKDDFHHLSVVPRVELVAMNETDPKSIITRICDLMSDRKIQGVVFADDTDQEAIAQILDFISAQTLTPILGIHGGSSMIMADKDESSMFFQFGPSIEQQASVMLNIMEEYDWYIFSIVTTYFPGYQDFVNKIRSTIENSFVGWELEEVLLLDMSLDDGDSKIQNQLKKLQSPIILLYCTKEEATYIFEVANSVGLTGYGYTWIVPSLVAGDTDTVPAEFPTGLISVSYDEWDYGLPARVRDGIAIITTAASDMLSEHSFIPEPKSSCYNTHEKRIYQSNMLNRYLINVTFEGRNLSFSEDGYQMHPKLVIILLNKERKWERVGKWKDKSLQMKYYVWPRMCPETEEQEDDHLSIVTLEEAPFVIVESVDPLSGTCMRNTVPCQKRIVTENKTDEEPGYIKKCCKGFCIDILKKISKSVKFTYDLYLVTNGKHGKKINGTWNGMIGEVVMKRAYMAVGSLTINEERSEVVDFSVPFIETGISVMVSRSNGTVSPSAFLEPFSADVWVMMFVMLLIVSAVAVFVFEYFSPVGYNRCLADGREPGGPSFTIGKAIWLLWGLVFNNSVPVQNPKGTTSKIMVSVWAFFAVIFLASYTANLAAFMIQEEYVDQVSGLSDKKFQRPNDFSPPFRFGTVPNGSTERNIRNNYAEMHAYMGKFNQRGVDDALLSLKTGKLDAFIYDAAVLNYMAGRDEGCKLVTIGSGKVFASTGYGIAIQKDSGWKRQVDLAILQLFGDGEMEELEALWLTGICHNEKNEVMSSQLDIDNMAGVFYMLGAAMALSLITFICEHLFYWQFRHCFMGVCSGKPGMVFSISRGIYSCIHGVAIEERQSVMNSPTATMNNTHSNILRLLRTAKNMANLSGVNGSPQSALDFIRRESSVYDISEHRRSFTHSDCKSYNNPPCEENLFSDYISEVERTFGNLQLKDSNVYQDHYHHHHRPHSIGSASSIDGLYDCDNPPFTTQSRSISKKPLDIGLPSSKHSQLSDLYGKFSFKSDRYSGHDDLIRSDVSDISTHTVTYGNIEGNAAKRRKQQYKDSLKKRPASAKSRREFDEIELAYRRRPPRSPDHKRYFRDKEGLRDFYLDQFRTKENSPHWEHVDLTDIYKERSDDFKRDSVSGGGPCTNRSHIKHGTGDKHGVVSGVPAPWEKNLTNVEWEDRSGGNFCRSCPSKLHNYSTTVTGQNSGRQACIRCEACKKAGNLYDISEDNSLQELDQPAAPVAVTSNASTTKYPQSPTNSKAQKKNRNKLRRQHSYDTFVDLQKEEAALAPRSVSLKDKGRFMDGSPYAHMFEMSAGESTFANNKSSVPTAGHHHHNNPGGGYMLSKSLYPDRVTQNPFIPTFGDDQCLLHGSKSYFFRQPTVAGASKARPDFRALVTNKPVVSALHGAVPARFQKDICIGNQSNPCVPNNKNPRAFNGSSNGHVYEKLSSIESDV
QUANTITY: IC50 (µM)
Answers are plain numbers, in µM.

MOLECULE: CS(=O)(=O)Nc1ccc(OC[C@@H](O)CNCCc2ccc(Cl)c(Cl)c2)cc1.Cl [93-4 (S), hydrochloride]
SYSTEM: NR1-1a/NR2B receptors (Homo sapiens, UniProt Q05586+Q13224)
TEST VALUE: 0.026

Moving on to another molecule below.
Please give the measured IC50 for this molecule: OC(CNCCc1ccc(Cl)c(Cl)c1)COc1ccc(OC(F)(F)F)cc1 (racemic)
11.2
